Test system: M14 melanoma
Assay: NCI tumour cell line growth inhibition, 48 h
Parameter: GI50. Scope: all listed entries.

COMPOUND | GI50
CCOC(=O)/C=C(/C)Sc1cc(O)c2ccccc2c1O | 1.76 µM
O=C1c2ccccc2-c2c1c1ccccc1c(=O)n2CCCCl | 35.5 µM
O=C(CSC1CCc2ccccc21)N/N=C/c1ccccc1O (centres undefined) | 3.7 µM
O=C(Nc1ccc(F)cc1)c1cc(S(=O)(=O)Nc2nc3ccccc3o2)c(SCc2ccccc2)cc1Cl | 16 µM
COCC1(CO)C(=O)C2CCN1CC2 (centres undefined) | 15.4 µM
CC(=O)Oc1ccccc1C(=O)Nc1ncc([N+](=O)[O-])s1 | 2.54 µM
COc1ccc(O)c(C(=O)c2ccc(C(=O)N[C@H]3CCCNC[C@@H]3NC(=O)c3ccncc3)cc2)c1F | 6.43 µM
O=C1NC(=NCCc2cccc(Cl)c2)S/C1=C\c1ccc2ncccc2c1 | > 25 µM
CCCOc1ccc2sc(NC(=O)OC)nc2c1 | 1.26 µM
CCn1c(=O)c2c(=O)c3c4c(oc3oc2c2ccccc21)C(=O)c1ccccc1C4=O | > 100 µM
Cc1cc(C)c(/C=C2\C(=O)Nc3ccc(NC(=O)CCCCCCC(=O)NO)cc32)[nH]1 | 0.75 µM
CCN(Cc1ccccc1C)c1ccc(CO)c(Cl)c1 | 15.3 µM
C#COc1cccc(Nc2c(C#N)cnc3ncc(NC(=O)CCl)cc23)c1 | > 62.5 µM
CSc1ccc2c(c1)C(=O)c1c-2n(CCCBr)c(=O)c2cc([N+](=O)[O-])ccc12 | 3.38 µM
NC(=O)c1cc(S(=O)(=O)Nc2nnc(-c3ccccc3)c(-c3ccccc3)n2)c(SCc2ccccc2)cc1Cl | > 100 µM
O=S(=O)(Nc1ccc(F)cc1F)c1ccc(-c2cnc(C3CC3)o2)cc1 | 0.376 µM
COc1cc2c3c(n(CCCOC(=O)C(F)(F)F)c(=O)c2cc1OC)-c1cc2c(cc1C3=O)OCO2 | < 0.0123 µM
N=C(N)c1ccc2nc(-c3cc(CC(=O)N[C@@H](CC(=O)O)C(=O)O)cc(-c4cc(S(N)(=O)=O)ccc4O)c3O)[nH]c2c1 | > 100 µM
C1=C\COCc2cc(ccc2OCCN2CCCC2)Nc2nccc(n2)-c2cccc(c2)COC/1 | 1.75 µM

* * *

Test system: SF-539 CNS
Assay: NCI tumour cell line growth inhibition, 48 h
Parameter: TGI. Scope: all listed entries.

COMPOUND | INEQUALITY SYMBOL | TGI, µM
CCN1C(=O)N(CC)C2C1NN=c1s/c(=C3\C(=O)N(CC(C)(C)C)c4ccccc43)c(=O)n12 (stereo not drawn) | = | 11.1
COc1ccc2c(c1)C(=O)OCCC2 | > | 100
COc1c[c]([Hg][O]C(C)=O)c(OC)c(NC(=O)CC(C)=O)[c]1[Hg][O]C(C)=O | = | 28.1
Ic1cccc(/C=C/CN2CCN(CCOC(c3ccccc3)c3ccccc3)CC2)c1 | = | 39.8
CN(C)CC1CCC/C(=C\c2ccc(Cl)cc2)C1=O (stereo not drawn) | = | 29.1
COc1cc(N=Nc2cccc(S(=O)(=O)O)c2)ccc1N=Nc1ccc(/C=C/c2ccc(-n3on3-c3ccc(/C=C/c4ccc(N=Nc5ccc(N=Nc6cccc(S(=O)(=O)O)c6)cc5OC)cc4S(=O)(=O)O)c(S(=O)(=O)O)c3)cc2S(=O)(=O)O)c(S(=O)(=O)O)c1 | > | 100
COc1c(OC(C)=O)c(OC(C)=O)cc2c1-c1ccc(SC)c(=O)cc1C(NC(C)=O)CC2 (stereo not drawn) | = | 0.846
Cc1c(/C=N/NC(=O)c2ccc(Cl)cc2)c(=O)n(-c2ccccc2)n1C | > | 100

* * *

Tested on: ACHN renal
Experiment: NCI tumour cell line growth inhibition, 48 h
VALUE TYPE: TGI

MOLECULE | MEASURED TARGET | RECORDED VALUE
O=[N+]([O-])c1ccc(N2N=C(c3ccc(NCc4nc5ccccc5[nH]4)cc3)CC2c2ccco2)cc1 (stereo unspecified) | ACHN renal | > 100 µM
O=C(c1cccs1)N(C(=O)N1CCN(c2ccccc2)CC1)S(=O)(=O)c1ccccc1 | ACHN renal | 39.9 µM
CC(C)CC(NC(=O)C(CI)Cc1ccccc1)C(=O)Nc1ccccc1 (stereo unspecified) | ACHN renal | > 100 µM
COc1ccc2c(c1)nc1n2C(c2c(Cl)cccc2Cl)SC1 (stereo unspecified) | ACHN renal | > 100 µM
COC1(OC)CC2C(=O)N(Cc3ccccc3)C1C=C2S(=O)(=O)c1ccccc1 (stereo unspecified) | ACHN renal | 44.4 µM
Cc1cc(C)c(NC(=O)c2sc3nc4c(cc3c2N)CN(Cc2ccccc2)CC4)c(C)c1 | ACHN renal | > 100 µM
O=C1OCC2C1C1c3ccccc3C(O)c3ccccc3C21 (stereo unspecified) | ACHN renal | > 100 µM
CC(C)C(=O)Nc1nc2c(ncn2C2OC(CO)C(O)C2O)c(=O)[nH]1 (stereo unspecified) | ACHN renal | > 100 µM
CC(C(=O)OCc1ccccc1)(c1ccco1)N1C(=O)OC(c2ccccc2)C1c1ccccc1 (stereo unspecified) | ACHN renal | > 100 µM
COC(=O)C1=C(C(=O)Nc2cccnc2Cl)N(c2ccc(OC)cc2[N+](=O)[O-])C(c2ccc(C)cc2)=CC1c1ccc(OC)cc1OC (stereo unspecified) | ACHN renal | > 81.6 µM
C#COc1cccc(Nc2c(C#N)cnc3ncc(NC(=O)CCl)cc23)c1 | ACHN renal | > 62.5 µM
N#CC(C(=O)C(=O)Nc1ccc(Cl)cc1)c1ccccc1 (stereo unspecified) | ACHN renal | > 100 µM
COc1ccc2c(c1)C(=O)OCCC2 | ACHN renal | > 100 µM
O=C1/C(=C/c2cccc(Br)c2)Cc2ccccc21 | ACHN renal | > 100 µM
O=C1NC(=O)/C(=C\c2ccccc2)C2=C1CCCC2 | ACHN renal | 18.6 µM
O=C(c1ccccc1)c1c(-c2ccccc2)n(-c2ccccc2)[nH]c(=O)c1=O | ACHN renal | > 100 µM
COc1cc(C(C)=O)cc(C(=O)N(C(C)C)C(C)C)c1[Si](C)(C)C | ACHN renal | > 100 µM
OCc1ccn2c1[C@@H](O)CC2 | ACHN renal | > 100 µM
CC(C)N(CCn1c2c3ccccc3ccc2c2oc(=O)c3ccccc3c21)C(C)C | ACHN renal | > 100 µM
OCCCNc1nccc(-c2c(-c3ccc(F)cc3)nn3cc(C(F)(F)F)ccc23)n1 | ACHN renal | > 25 µM
COc1cc(O)c(C(=O)/C=C/c2ccc(O)cc2)cc1Oc1ccc(/C=C/C(=O)c2ccc(O)cc2O)cc1 | ACHN renal | 15.7 µM

* * *

Tested on: K-562 leukemia
Assay: NCI tumour cell line growth inhibition, 48 h

COMPOUND | MEASURED TARGET | TGI
COc1cc(N(CCC#N)CCC#N)ccc1/C(N=Nc1ccccc1C)=N\NC(=O)c1ccc(C)cc1 | K-562 leukemia | > 100 µM
OCc1ccn2c1[C@@H](O)CC2 | K-562 leukemia | > 100 µM
CCCCCOc1ccc(/C=N/Nc2cc(C)nc3ccc(Br)cc23)cc1 | K-562 leukemia | 2.83 µM
Cc1cc(C)nc(NS(=O)(=O)c2ccc(NC(=O)c3cccc4c(Nc5ccc(S(N)(=O)=O)cc5)c5ccccc5nc34)cc2)n1 | K-562 leukemia | > 67.6 µM
CCC(=O)O[C@H]1CC[C@H]2[C@@H]3CCC4=C/C(=N/OC(=O)c5cccc6c(=O)c7ccccc7[nH]c56)CC[C@]4(C)[C@H]3CC[C@]12C | K-562 leukemia | 47 µM
COc1cc(O)c(C(=O)/C=C/c2ccc(O)cc2)cc1Oc1ccc(/C=C/C(=O)c2ccc(O)cc2O)cc1 | K-562 leukemia | 22.8 µM
Cc1nn(C(=O)c2ccc(Cl)cc2)c2c1C(/C=C/c1ccccc1)SC(N)=N2 (stereo unspecified) | K-562 leukemia | > 10 µM
COc1cc(OC)c(/C=C/c2c3ccccc3cc[n+]2C)c(OC)c1 | K-562 leukemia | > 100 µM
Cc1nc2ccc(NC(=S)Nc3ccccc3)cc2c(=O)n1-c1ccccc1 | K-562 leukemia | > 100 µM
COC(=O)C1(C(=O)OC)C/C(C)=C(/C)SCCCS1 | K-562 leukemia | > 100 µM
COc1ccc(-c2nc(-c3cc4c(ccc5ccccc54)oc3=O)cs2)cc1 | K-562 leukemia | > 100 µM

* * *

Test system: MDA-MB-231 breast
Experiment: NCI tumour cell line growth inhibition, 48 h

MOLECULE | TGI
O=C1NC(=O)/C(=C\c2ccccc2)C2=C1CCCC2 | 26.4 µM
COc1ccc(-c2nc(-c3cc4c(ccc5ccccc54)oc3=O)cs2)cc1 | > 100 µM
CN(CCO)c1ccc(N2Cc3ccccc3OC3=C2C(=O)c2c(O)ccc(O)c2C3=O)cn1 | 0.679 µM
CC(O)CCCCC(O)CCC[C@H](O)[C@H]1CCC([C@H]2CCC([C@@H](O)CCCCCCCCCCCCC3=C[C@H](C)OC3=O)O2)O1 (stereo partly drawn) | 21.6 µM
c1ccc2nc3c(nc2c1)sc1ccccc13 | > 100 µM
Cc1cc(C2CC(O)C(CO)O2)c(F)cc1F (stereo not drawn) | > 100 µM
CCOc1ccncc1[N+](=O)[O-] | > 100 µM
CCC(=O)O[C@H]1CC[C@H]2[C@@H]3CCC4=C/C(=N/OC(=O)c5cccc6c(=O)c7ccccc7[nH]c56)CC[C@]4(C)[C@H]3CC[C@]12C | > 100 µM
COc1cc(C(C)=O)cc(C(=O)N(C(C)C)C(C)C)c1[Si](C)(C)C | > 100 µM
COc1ccc(O)c(C(=O)c2ccc(C(=O)N[C@H]3CCCNC[C@@H]3NC(=O)c3ccncc3)cc2)c1F | > 25 µM
COC(=O)C1=C(C(=O)Nc2cccnc2Cl)N(c2ccc(OC)cc2[N+](=O)[O-])C(c2ccc(C)cc2)=CC1c1ccc(OC)cc1OC (stereo not drawn) | 62.1 µM
COc1ncc(-c2ccc3ncnc(Nc4cccc(Cl)c4)c3c2)cc1NS(=O)(=O)C1CC1 | > 100 µM
CC1=CCC(C)=Nc2nc3ccccc3n21 | > 100 µM
CCC(C)C1NC(=O)C(NC(=O)c2c3[nH]c4c(C(=O)NC5C(=O)NC(C(C)CC)C(=O)N6CCCC6C(=O)N(C)CC(=O)N(C)C(C(C)C)C(=O)OC5C)ccc(C)c4oc-3c(C)c(=O)c2=O)C(C)OC(=O)C(C(C)C)N(C)C(=O)CN(C)C(=O)C2CCCN2C1=O (stereo not drawn) | 55.2 µM
C/C(=N/NC(=S)Nc1ccc(Cl)cc1)c1cccc(/C(C)=N\NC(=S)Nc2ccc(Cl)cc2)n1 | 48.4 µM
Cc1cc(C)c(C(=O)c2nnc3ccccc3c2N)c(C)c1 | 63.8 µM
COc1ccc(-c2csc(Cc3nc4ccccc4c(=O)n3-c3ccc(Cl)cc3)n2)cc1 | > 100 µM
CN1CCc2c(sc3ncn(C)c(=N)c23)C1 | > 100 µM
